Record form. Attribute: pIC50. Fill in for each entry.
test_target: PDE 7 (phosphodiesterase VII) (Homo sapiens (Human), UniProt Q13946)
Sequence (Q13946 whole entry): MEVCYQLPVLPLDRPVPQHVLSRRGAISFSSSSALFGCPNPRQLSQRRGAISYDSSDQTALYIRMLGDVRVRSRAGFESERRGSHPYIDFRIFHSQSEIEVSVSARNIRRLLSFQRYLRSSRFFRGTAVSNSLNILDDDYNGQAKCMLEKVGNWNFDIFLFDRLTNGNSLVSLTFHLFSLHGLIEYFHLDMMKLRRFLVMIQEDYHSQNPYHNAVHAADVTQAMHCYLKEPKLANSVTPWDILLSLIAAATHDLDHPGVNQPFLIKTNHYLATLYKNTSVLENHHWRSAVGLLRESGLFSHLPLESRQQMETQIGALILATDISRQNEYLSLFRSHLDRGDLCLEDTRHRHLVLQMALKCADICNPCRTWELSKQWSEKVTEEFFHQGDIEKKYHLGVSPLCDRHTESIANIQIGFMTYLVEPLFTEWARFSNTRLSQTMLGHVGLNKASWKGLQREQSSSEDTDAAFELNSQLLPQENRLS
procedure_details: PDE 7 inhibiting effect (3H-cAMP hydrolysis, PDE 7 active fraction from MOLT-4 cells)
Assay type: biochemical
details: PDE 7 fraction from MOLT-4 cells, 0.064 μM cAMP, 10 μM rolipram, 2 hours at 25° C.; read-out: PDE7 IC50
Structures can show the parent of a compound that is named as a salt.
pIC50 here is simply -log10 of the concentration when that concentration is written in mol/L.

Query: What pIC50 value was documented for this molecule, "Cc1nn(C2CCCCC2)c2sc(C(=O)Nc3ccc(N4CCC(O)CC4)nc3)cc12" ?
Result: 8.06

Query: What pIC50 value was documented for this molecule, "Cc1nn(C2CCCCC2)c2sc(C(=O)Nc3ccc(CN4C(=O)CN(C)C4=O)cc3)cc12" ?
Result: 7.48

Query: What pIC50 value was documented for this molecule, "Cc1cc(NC(=O)c2cc3c(C)nn(C4CCCCC4)c3s2)ccc1N1CCC(O)CC1" ?
Result: 7.96

Query: What pIC50 value was documented for this molecule, "Cc1nn(C2CCCCC2)c2sc(C(=O)Nc3ccc(CCN(C)C)cc3)cc12" ?
Result: 7.80

Query: What pIC50 value was documented for this molecule, "Cc1nn(C2CCCCC2)c2sc(C(=O)N[C@H]3CC[C@H](CN4C(=O)CNC4=O)C3)cc12" ?
Result: 7.82

Query: What pIC50 value was documented for this molecule, "CC(=O)N(C)C1CCN([C@H]2CC[C@H](NC(=O)c3cc4c(C)nn(C5CCCCC5)c4s3)CC2)CC1" ?
Result: 8.00

Query: What pIC50 value was documented for this molecule, Cc1nn(C2CCCCC2)c2sc(C(=O)N[C@H]3CC[C@H](C(=O)N(C)C)C3)cc12 [Example 230, HCl salt] ?
Result: 7.64

Query: What pIC50 value was documented for this molecule, "Cc1nn(C2CCCCC2)c2sc(C(=O)N[C@H]3CC[C@H](O)CC3)cc12" ?
Result: 7.30

Query: What pIC50 value was documented for this molecule, "Cc1nn(C2CCOCC2)c2sc(C(=O)N[C@H]3CC[C@H](N4CCC(CO)CC4)CC3)cc12" ?
Result: 7.14

Query: What pIC50 value was documented for this molecule, "Cc1nn(C2CCOCC2)c2sc(C(=O)Nc3ccc(N4CCN(C)CC4)c(F)c3)cc12" ?
Result: 7.10

Query: What pIC50 value was documented for this molecule, "CCNC(=O)c1ccc(NC(=O)c2cc3c(C)nn(C4CCCCC4)c3s2)cc1" ?
Result: 7.30

Query: What pIC50 value was documented for this molecule, Cc1nn(C2CCCCC2)c2sc(C(=O)Nc3ccc(CN4CCOCC4)nc3)cc12 [Example 412, methanesulfonate] ?
Result: 7.37

Query: What pIC50 value was documented for this molecule, "Cc1nn(C2CCCCC2)c2sc(C(=O)Nc3ccc(C(=O)N4CCN(C)CC4)nc3)cc12" ?
Result: 7.25

Query: What pIC50 value was documented for this molecule, "Cc1nn(C2CCCCC2)c2sc(C(=O)Nc3ccc(C(=O)NC(C)(C)C)cc3)cc12" ?
Result: 7.12

Query: What pIC50 value was documented for this molecule, "Cc1nn(C2CCCCC2)c2sc(C(=O)Nc3ccc(C(=O)NCCO)nc3)cc12" ?
Result: 7.89

Query: What pIC50 value was documented for this molecule, "Cc1nn(C2CCCCC2)c2sc(C(=O)Nc3ccc(N4CCN(C)CC4)c(F)c3)cc12" ?
Result: 8.00
